Subject Of Test: recombinant human ALK5 (TGF-βR1) protein (Homo sapiens)
Construct: purchased Life Technologies PR9075A
Sequence (P36897 34-503): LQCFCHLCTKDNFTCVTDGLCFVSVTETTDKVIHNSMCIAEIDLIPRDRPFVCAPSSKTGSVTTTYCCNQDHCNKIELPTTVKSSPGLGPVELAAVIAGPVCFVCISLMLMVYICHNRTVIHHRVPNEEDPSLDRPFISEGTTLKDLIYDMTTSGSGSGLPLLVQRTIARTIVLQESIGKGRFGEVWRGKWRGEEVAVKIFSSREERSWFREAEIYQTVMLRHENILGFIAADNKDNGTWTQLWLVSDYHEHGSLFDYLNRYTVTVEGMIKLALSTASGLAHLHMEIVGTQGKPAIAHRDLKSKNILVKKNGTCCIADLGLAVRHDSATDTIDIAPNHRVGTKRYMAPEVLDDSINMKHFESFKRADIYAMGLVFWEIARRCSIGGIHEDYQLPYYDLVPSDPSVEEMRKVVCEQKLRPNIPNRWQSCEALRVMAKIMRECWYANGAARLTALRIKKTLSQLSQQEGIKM
Experimental Protocol: Biochemical ALK5 (TGF-βR1) assay to measure pKi (LANCE Ultra ULight kinase assay)
Measurement Conditions: apparent pKi from pIC50 by Cheng-Prusoff, read-out: ALK5 pKi (converted)
Property: Ki; scope: individual molecules

Cc1cccc(-c2[nH]ncc2-c2ccc3nccc(C(=O)OC4CCNCC4)c3c2)n1 [Compound 1210] ... 0.0398 to 0.316 nM
Cc1nc(-c2n[nH]cc2-c2ccc3ncc(-c4cnn(C[C@@H]5CC[C@H](N)C5)c4)cc3n2)ccc1F (racemic) [Compound 547] ... 0.0398 to 0.316 nM
COc1[nH]nc(-c2cccc(C)n2)c1-c1ccc2ncc(NCCN3CCOCC3)cc2n1 [Compound 87] ... 0.398 to 3.16 nM

Q: Could you share what Ki was measured for Cc1cccc(-c2[nH]cnc2-c2ccc3ncc(-c4ncc(C(=O)O)s4)cc3c2)n1 [Compound 1017] , tested on recombinant human ALK5 (TGF-βR1) protein (Homo sapiens)?
Result: 0.0398 to 0.316 nM
